Hey, just so you know, these numbers are from paper PMC4336329.

# reported hERG current change (%, negative = inhibition) at 1uM; entries follow
molecular target: human ether-à-go-go-related gene (hERG) potassium channel (human); assay: primary screen, population patch clamp on CHO cells stably expressing hERG; higher = less effect of the substance
Sequence (Q12809 whole entry, looked up): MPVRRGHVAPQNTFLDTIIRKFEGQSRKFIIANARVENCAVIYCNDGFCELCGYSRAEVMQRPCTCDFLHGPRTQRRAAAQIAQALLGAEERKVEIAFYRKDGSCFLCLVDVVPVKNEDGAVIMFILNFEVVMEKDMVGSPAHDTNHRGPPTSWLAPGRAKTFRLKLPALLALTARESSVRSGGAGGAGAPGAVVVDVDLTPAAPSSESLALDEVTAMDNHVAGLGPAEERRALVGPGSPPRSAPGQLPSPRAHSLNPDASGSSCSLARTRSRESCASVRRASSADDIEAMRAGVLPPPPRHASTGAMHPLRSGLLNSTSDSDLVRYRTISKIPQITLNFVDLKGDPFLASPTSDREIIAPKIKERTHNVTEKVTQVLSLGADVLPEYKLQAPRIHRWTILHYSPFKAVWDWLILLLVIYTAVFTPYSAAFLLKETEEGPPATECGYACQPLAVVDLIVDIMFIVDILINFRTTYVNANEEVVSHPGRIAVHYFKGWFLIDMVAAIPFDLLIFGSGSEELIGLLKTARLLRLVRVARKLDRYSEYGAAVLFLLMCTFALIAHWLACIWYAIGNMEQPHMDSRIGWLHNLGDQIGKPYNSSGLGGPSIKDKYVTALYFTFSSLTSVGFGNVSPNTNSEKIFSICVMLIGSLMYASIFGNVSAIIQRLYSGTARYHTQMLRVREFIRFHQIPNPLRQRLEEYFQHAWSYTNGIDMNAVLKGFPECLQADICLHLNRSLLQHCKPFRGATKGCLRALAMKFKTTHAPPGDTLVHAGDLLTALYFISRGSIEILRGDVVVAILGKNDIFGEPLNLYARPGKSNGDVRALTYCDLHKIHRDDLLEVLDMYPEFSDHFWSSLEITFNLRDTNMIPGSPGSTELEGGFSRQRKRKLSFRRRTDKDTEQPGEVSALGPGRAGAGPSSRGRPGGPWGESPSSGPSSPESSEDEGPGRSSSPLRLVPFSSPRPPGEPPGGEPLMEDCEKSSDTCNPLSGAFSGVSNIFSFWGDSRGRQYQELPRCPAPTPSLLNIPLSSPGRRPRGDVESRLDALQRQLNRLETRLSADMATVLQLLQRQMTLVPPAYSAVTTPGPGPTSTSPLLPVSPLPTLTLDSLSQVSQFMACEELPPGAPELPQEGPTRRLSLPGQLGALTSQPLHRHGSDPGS
The whole screen tested about 310,000 compounds, of which about 2,200 (0.71%) showed an effect of 50% or more. The effect is printed as a negative number. This excerpt belongs to a sample that is enriched for strong results.
Could you give me the number in %? Just the number is fine.

Please review the entries below; each comes with its answer.
>  <compound>
O=C(NCc1cccs1)c1ccccc1

>  <result.units>
%

>  <measurement>
7.23

$$$$
>  <compound>
CCOc1ccc(N2CC(C(=O)Nc3ccc(S(=O)(=O)N4CCCC4)cc3)CC2=O)cc1 (centres unmarked)

>  <result.units>
%

>  <measurement>
6.22

$$$$
>  <compound>
CCCc1[nH]n(-c2nc3ccccc3s2)c(=O)c1C=NCCN1CCOCC1

>  <result.units>
%

>  <measurement>
-4.58

$$$$
>  <compound>
CCCc1[nH]n(-c2nc3ccccc3s2)c(=O)c1C=NCC(C)C

>  <result.units>
%

>  <measurement>
6.14

$$$$
>  <compound>
O=c1c(C=NCCCO)c(-c2ccccc2)[nH]n1-c1nc2ccccc2s1

>  <result.units>
%

>  <measurement>
-2.36

$$$$

Request: Endpoint output: hERG current change (%, negative = inhibition) at 1uM of `CN(C)CCCN=Cc1c(-c2ccccc2)[nH]n(-c2nc3ccccc3s2)c1=O` . Value?
Response: -58.1

Request: // returns reported hERG current change (%, negative = inhibition) at 1uM for input `COCCNC(=O)c1cccc(OC2CCN(Cc3ccc(F)cc3OC)CC2)c1`
Response: 10.6

Request: Record request: hERG current change (%, negative = inhibition) at 1uM value, item COc1cccc(-c2nc3n(n2)C(c2cccs2)C(C(=O)Nc2cccnc2)=C(C)N3)c1 (centres unmarked)
Response: -51.2

Request: Give its hERG current change (%, negative = inhibition) at 1uM value. Item: `O=c1c(C=NCCCn2ccnc2)c(-c2ccccc2)[nH]n1-c1nc2ccccc2s1`
Response: -26.9

Request: Param item = `CCOC(=O)c1c(C)[nH]c(C(=O)N2CCN(C(=O)OCC)CC2)c1C` ; retrieve measured hERG current change (%, negative = inhibition) at 1uM.
Response: 7.64

Request: Which hERG current change (%, negative = inhibition) at 1uM value belongs to `O=C(NCc1ccccn1)c1ccc(OC2CCN(Cc3ccc(F)cc3F)CC2)cc1` ?
Response: 0.219

Request: Given the compound `COc1ccc(C(=O)NCC(=O)OCc2ccc(F)cc2Cl)cc1OC` , what is its reported hERG current change (%, negative = inhibition) at 1uM?
Response: 11.2

Request: Using the record for `COc1ccc(C(=O)NC2CC2)cc1OC1CCN(Cc2ccc(F)cc2F)CC1` , report its hERG current change (%, negative = inhibition) at 1uM.
Response: -75.1

Request: May I ask what hERG current change (%, negative = inhibition) at 1uM has been recorded for `COc1ccc(C(=O)NC2CC2)cc1OC1CCN(Cc2ccc(F)cc2Cl)CC1` ?
Response: -62

Request: Reported hERG current change (%, negative = inhibition) at 1uM, compound `CCCc1[nH]n(-c2nc3ccccc3s2)c(=O)c1C=NCCCOC` : ____
Response: -9.11

Request: Entry under review: `CCCN=C(C)c1c(-c2ccccc2)[nH]n(-c2nc3ccccc3s2)c1=O` . Reported hERG current change (%, negative = inhibition) at 1uM?
Response: 7.75

Request: What does the record list as hERG current change (%, negative = inhibition) at 1uM for `Cc1cccc(-n2nc([N+](=O)[O-])c(=NC3CCN(Cc4ccccc4)CC3)n2O)c1` ?
Response: -55.4

Request: So what does the record say about hERG current change (%, negative = inhibition) at 1uM for `Cc1ccc(S(=O)(=O)NC(=O)NCc2ccc(Cl)cc2)cc1` ?
Response: 10.1

Request: Would you kindly share the measured hERG current change (%, negative = inhibition) at 1uM for `COc1ccc(C(=O)NC2CCN(Cc3c(F)cccc3Cl)CC2)cc1OC` ?
Response: 10.1

Request: So what does the record say about hERG current change (%, negative = inhibition) at 1uM for `COCCCN=Cc1c(-c2ccccc2)[nH]n(-c2nc3ccccc3s2)c1=O` ?
Response: -55.9
